Entries annotated with measured composite z-score
System: Wnt5a (protein binding on small-molecule microarray)
Experiment: small molecules binding Wnt5a protein – biophysical, small-molecule microarray, 635/667 nm fluorescence, primary screen (AID 1142);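 further: fluorescence read at 667 nm with signal to noise per printed feature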
Settings: 635 nm fluorescence, higher = more signal
// keep it numeric: no unit symbol after the value

The examples below pair each entry with its known result.
In: Dear colleague, please send me the reported composite z-score for COCCOC(=O)N1C(=O)[C@@]2(c3cc(C#Cc4ccc(OC)cc4)ccc31)[C@H](C(=O)N1CCc3cc(OC)c(OC)cc3C1)[C@H]1C(=O)O[C@H](c3ccccc3)[C@H](c3ccccc3)N1[C@@H]2c1ccc(O)cc1 when you can.
Out: 0.783

In: Dear colleague, please send me the reported composite z-score for [N-]=[N+]=NCc1ccccc1C[C@]1(C(=O)NCCN2CCOCC2)N=C(c2ccc(OCCCO)cc2)O[C@H]1c1ccccc1 when you can.
Out: 0.461

Now for the molecule whose composite z-score we want.
In: Dear colleague, please send me the reported composite z-score for C=C(CCCC)/C(=C/C[C@@H](OC(=O)c1ccncc1)c1ccccc1OCCO)c1cc(C(=O)OC)ccc1OC when you can.
Out: 0.106

The reported measurements were obtained from PubChem BioAssay.
